Just for reference, the Immune Epitope Database (IEDB) is where these values come from.

target: HLA-B*35:01; assay: IEDB peptide-MHC binding, purified MHC/direct/fluorescence; filed as Kd, often an IC50 or EC50 that approximates it; bounds were set here for any values at or beyond the usual limits of such assays; conditions: source organism: Vibrio vulnificus
Assay Endpoint: pKd
For clarity, pKd is expressed as the negative log10 of concentration in mol/L.

Per the record, `IMDEPTSSL` has pKd of 5.68

* * *

molecular target: HLA-B*07:02; assay: IEDB peptide-MHC binding, purified MHC/direct/fluorescence; filed as Kd, often an IC50 or EC50 that approximates it; bounds were set here for any values at or beyond the usual limits of such assays; settings: source organism: Corynebacterium diphtheriae
Assay Endpoint: Kd

The measured Kd associated with `VERRLVKVL` reads ≥ 20 µM

* * *

target: HLA-B*08:01; assay: IEDB peptide-MHC binding, purified MHC/competitive/fluorescence; bounds were set here for any values at or beyond the usual limits of such assays; settings: source organism: Variola virus
pIC50: −log10 of the molar value.
Assay Endpoint: pIC50

Memo: `DFHERPVIL` , reported pIC50: ≤ 4.05

* * *

biological target: HLA-B*27:05; assay: IEDB peptide-MHC binding, purified MHC/direct/fluorescence; filed as Kd, often an IC50 or EC50 that approximates it; bounds were set here for any values at or beyond the usual limits of such assays; conditions: source organism: Vibrio vulnificus
Assay Endpoint: Kd

Measured Kd, `STDTRHIPQ` : ≥ 20 µM

* * *

target: HLA-A*03:01; experiment: IEDB peptide-MHC binding, purified MHC/direct/fluorescence; filed as Kd, often an IC50 or EC50 that approximates it; bounds were set here for any values at or beyond the usual limits of such assays; settings: source organism: Reston ebolavirus
pKd: −log10 of the molar value.
Assay Endpoint: pKd

Recorded pKd (sequence `ITDEINQIK` ): ≤ 4.70

* * *

target: HLA-A*11:01; assay: IEDB peptide-MHC binding, purified MHC/direct/fluorescence; filed as Kd, often an IC50 or EC50 that approximates it; bounds were set here for any values at or beyond the usual limits of such assays; details: source organism: Salmonella enterica
pKd: −log10 of the molar value.
Assay Endpoint: pKd

# pKd (sequence: `QTDDGVRFT` ) is ≤ 4.70

* * *

target: HLA-A*01:01; experiment: IEDB peptide-MHC binding, purified MHC/direct/fluorescence; filed as Kd, often an IC50 or EC50 that approximates it; bounds were set here for any values at or beyond the usual limits of such assays; details: source organism: Yersinia enterocolitica
Assay Endpoint: Kd

Kd reported for this sequence `IMDASSFTL` : 5.7 µM

* * *

target: HLA-B*07:02; assay: IEDB peptide-MHC binding, purified MHC/competitive/fluorescence; bounds were set here for any values at or beyond the usual limits of such assays; settings: source organism: Monodelphis domestica
Assay Endpoint: IC50

Per the record, `FLLPILSQIYT` has IC50 of ≥ 20 µM

* * *

Please respond with reported pKd for every item in the list.
target: HLA-B*45:01; assay: IEDB peptide-MHC binding, purified MHC/competitive/radioactivity; filed as Kd, often an IC50 or EC50 that approximates it; bounds were set here for any values at or beyond the usual limits of such assays; settings: source organism: Mammarenavirus machupoense
// field semantics: pKd = negative decimal log of concentration (mol/L)

Measured pKd, `EEPVPLLPLS` : 5.71

The sequence `TEQFLCYAL` showed pKd equal to 7.58
